These measurements were taken from the supplement of paper PMC10307832.

# System: COR-L 105
# procedure details: relative viability (nuclei count vs DMSO), 5 days (fraction); higher = more cells survive
# experimental parameters: first compound 0.8 µM
Binning rule for recorded relative viability: class A (below 0.4), class B (0.4 to below 0.8), class C (0.8 or more)

{"compound": "C=C1C(=O)O[C@@H](CCCCCCCC)[C@@H]1C(=O)O [C-75] + Cc1nc(Nc2ncc(C(=O)Nc3c(C)cccc3Cl)s2)cc(N2CCN(CCO)CC2)n1 [Dasatinib] (partner 0.075 µM)", "class name": "class A"}
{"compound": "Oc1nc(-c2ccc(C(F)(F)F)cc2)nc2c1CSCC2 [XAV939] + CC(=O)c1c(C)c2cnc(Nc3ccc(N4CCNCC4)cn3)nc2n(C2CCCC2)c1=O [Palbociclib] (partner 0.5 µM)", "class name": "class B"}
{"compound": "C=C1C(=O)O[C@@H](CCCCCCCC)[C@@H]1C(=O)O [C-75] + C[C@@H](Oc1cc(-c2cnn(C3CCNCC3)c2)cnc1N)c1c(Cl)ccc(F)c1Cl [Crizotinib] (partner 1 µM)", "class name": "class C"}
{"compound": "C=C1C(=O)O[C@@H](CCCCCCCC)[C@@H]1C(=O)O [C-75] + COc1cc2c(Oc3ccc(NC(=O)C4(C(=O)Nc5ccc(F)cc5)CC4)cc3F)ccnc2cc1OCCCN1CCOCC1 [Foretinib] (partner 0.25 µM)", "class name": "class C"}
{"compound": "Oc1nc(-c2ccc(C(F)(F)F)cc2)nc2c1CSCC2 [XAV939] + CC1(C)CCC(c2ccc(Cl)cc2)=C(CN2CCN(c3ccc(C(=O)NS(=O)(=O)c4ccc(N[C@H](CCN5CCOCC5)CSc5ccccc5)c(S(=O)(=O)C(F)(F)F)c4)cc3)CC2)C1 [Navitoclax] (partner 0.5 µM)", "class name": "class B"}
{"compound": "Oc1nc(-c2ccc(C(F)(F)F)cc2)nc2c1CSCC2 [XAV939] + Cc1cc(Nc2cc(N3CCN(C)CC3)nc(Sc3ccc(NC(=O)C4CC4)cc3)n2)n[nH]1 [Tozasertib] (partner 0.1 µM)", "class name": "class A"}
{"compound": "Oc1nc(-c2ccc(C(F)(F)F)cc2)nc2c1CSCC2 [XAV939] + O=C(CCCCCCC(=O)Nc1ccccc1)NO [Vorinostat] (partner 1 µM)", "class name": "class B"}

###

# System: NCI-H1793
# procedure details: relative viability (nuclei count vs DMSO), 5 days (fraction); higher = more cells survive
# experimental parameters: first compound 0.253 µM
relative viability listing for selected molecules.
quantity kind: relative viability

{"molecule": "C=C1C(=O)O[C@@H](CCCCCCCC)[C@@H]1C(=O)O [C-75] + O=C(c1cc(Cc2n[nH]c(=O)c3ccccc23)ccc1F)N1CCN(C(=O)C2CC2)CC1 [Olaparib] (partner 8 µM)", "target under test": "NCI-H1793", "measured value": 0.988}
{"molecule": "C=C1C(=O)O[C@@H](CCCCCCCC)[C@@H]1C(=O)O [C-75] + NC(=O)Nc1cc(-c2cccc(F)c2)sc1C(=O)N[C@H]1CCCNC1 [AZD7762] (partner 0.2 µM)", "target under test": "NCI-H1793", "measured value": 0.645}
{"molecule": "C=C1C(=O)O[C@@H](CCCCCCCC)[C@@H]1C(=O)O [C-75] + Cc1cc(Nc2cc(N3CCN(C)CC3)nc(Sc3ccc(NC(=O)C4CC4)cc3)n2)n[nH]1 [Tozasertib] (partner 0.1 µM)", "target under test": "NCI-H1793", "measured value": 0.315}
{"molecule": "Oc1nc(-c2ccc(C(F)(F)F)cc2)nc2c1CSCC2 [XAV939] + CC(=O)c1c(C)c2cnc(Nc3ccc(N4CCNCC4)cn3)nc2n(C2CCCC2)c1=O [Palbociclib] (partner 0.5 µM)", "target under test": "NCI-H1793", "measured value": 0.317}
{"molecule": "C=C1C(=O)O[C@@H](CCCCCCCC)[C@@H]1C(=O)O [C-75] + CCNC(=O)c1noc(-c2cc(C(C)C)c(O)cc2O)c1-c1ccc(CN2CCOCC2)cc1 [Luminespib] (partner 0.01 µM)", "target under test": "NCI-H1793", "measured value": 0.148}
{"molecule": "C=C1C(=O)O[C@@H](CCCCCCCC)[C@@H]1C(=O)O [C-75] + CS(=O)(=O)CCNCc1ccc(-c2ccc3ncnc(Nc4ccc(OCc5cccc(F)c5)c(Cl)c4)c3c2)o1 [Lapatinib] (partner 2 µM)", "target under test": "NCI-H1793", "measured value": 0.785}
{"molecule": "C=C1C(=O)O[C@@H](CCCCCCCC)[C@@H]1C(=O)O [C-75] + COc1cc2c(Oc3ccc(NC(=O)C4(C(=O)Nc5ccc(F)cc5)CC4)cc3F)ccnc2cc1OCCCN1CCOCC1 [Foretinib] (partner 0.25 µM)", "target under test": "NCI-H1793", "measured value": 0.721}
{"molecule": "C=C1C(=O)O[C@@H](CCCCCCCC)[C@@H]1C(=O)O [C-75] + Nc1ncn([C@H]2C[C@H](O)[C@@H](CO)O2)c(=O)n1 [Decitabine] (partner 2 µM)", "target under test": "NCI-H1793", "measured value": 0.571}
{"molecule": "Oc1nc(-c2ccc(C(F)(F)F)cc2)nc2c1CSCC2 [XAV939] + CCNC(=O)c1noc(-c2cc(C(C)C)c(O)cc2O)c1-c1ccc(CN2CCOCC2)cc1 [Luminespib] (partner 0.01 µM)", "target under test": "NCI-H1793", "measured value": 0.186}
{"molecule": "C=C1C(=O)O[C@@H](CCCCCCCC)[C@@H]1C(=O)O [C-75] + CC(=O)Nc1cccc(-n2c(=O)n(C3CC3)c(=O)c3c(Nc4ccc(I)cc4F)n(C)c(=O)c(C)c32)c1 [Trametinib] (partner 0.02 µM)", "target under test": "NCI-H1793", "measured value": 0.509}
{"molecule": "Oc1nc(-c2ccc(C(F)(F)F)cc2)nc2c1CSCC2 [XAV939] + COc1cccc2cc(-c3nc([C@H]4CC[C@H](C(=O)O)CC4)n4ncnc(N)c34)[nH]c12 [OSI-027] (partner 0.5 µM)", "target under test": "NCI-H1793", "measured value": 0.232}
